target: rSARS2-B.1.1.7 S aa16-1211 2x aa mut., C-His (SARS-CoV-2, UniProt P0DTC2 16-1211); assay: flow cytometry, blocking of binding to hACE-2 cells
Observation type: percent blocking (%)

- 1035423 (antibody, V domains shown) VH: EVKLEESGGGLVQPGGSMKLSCTASGFTFSDAWMDWVRQSPEKGLEWVAEIRNKANNHATYYAESVKGRFTISRDDSKSSVYLQMNSLRAEDTGIYYCILFITYAMDYWGQGTSVTVSS VL: DIVLTQSQKFMSTSVGDRVSITCKASQNVRTAVAWYQQKPGQSPKALIYLASNRHTGVPDRFTGSGSGTDFTLTISNVQSEDLADYFCLQHWNYPLTFGSGTKLELK: 71.1
- 1035753 (antibody, V domains shown) VH: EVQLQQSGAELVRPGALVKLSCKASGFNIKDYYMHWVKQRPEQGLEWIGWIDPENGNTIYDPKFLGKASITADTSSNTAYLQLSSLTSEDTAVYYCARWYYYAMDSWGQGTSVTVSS VL: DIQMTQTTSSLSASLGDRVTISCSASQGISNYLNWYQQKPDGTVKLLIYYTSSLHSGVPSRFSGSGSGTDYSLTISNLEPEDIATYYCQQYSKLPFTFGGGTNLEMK: 93.6
- 1035414 (antibody, V domains shown) VH: QVQLKQSGAELVRPGASVKLSCKTSGYIFTSYWIHWVKQRSGQGLEWIARIYPGTGNTYYNEKFKGKATLTADKSSTTAYMQLSSLKSEDSAVYFCARGEDNLYYYAMDYWGQGTSVTVSS VL: NIVLTQSPASLAVSLGQRATISCRASESVDSYGTSFMHWYQQKPGQPPKLLIYLASNLESGVPASFSGSGSRTDFTLTIDPVEADDAATYYCQQNNEDPWTFGGGTKLEIK: 17.8
- 1035433 (antibody, V domains shown) VH: QVQLQQSGPQLVRPGASVKISCKASGYSFTIYWMHWVQQRPGQGLEWIGMIDPSDSETRLNQKFKDKATLTVDKSSSTAYMQLSSPTSEDSAVYYCARRGDYNFDYWGQGTTLTVSS VL: DIVMTQAAPSVPATPGESVSISCRSSKSLLHSNGNTYLYWFLQRPGQSPQLLIFRMSNLASGVPDRFSGSGSGTAFTLRISRVEAEDVGVYYCMQHLEYPYTFGGGTKLEIK: 82

Measured values drawn from patent US20230408517A1 for this set.
